# experimentalProtocol: chemical genetic growth profiling, strain panel (AID 1159580);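 also: tested at 20 µM; growth read once vehicle control cultures reached saturation at 30 °C; 1 = growth at the plate median or of vehicle wells; lower values mean less growth of the strain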
# setupConditions: S. cerevisiae deletion strains, growth OD, locus YLR113W, strain HOG1, hits give low values
The whole screen tested about 5,500 compounds, of which about 2,000 (36%) were called active. Roughly 18% stayed inconclusive and do not appear here. The list shows a part of the results.
Reported normalized growth by item:

{"compound": "CC(C)Sc1c(Cl)cccc1NC(=O)Nc1cccc(C(F)(F)F)c1", "normalized growth": 0.908}
{"compound": "CC(C)=CCC/C(C)=C/CO", "normalized growth": 0.984}
{"compound": "Cc1oc(C(C)(C)C)cc1-c1cc(NC(=O)c2ccccc2)n[nH]1", "normalized growth": 0.778}
{"compound": "COc1cc(Cc2cnc(N)nc2N)cc(OC)c1OC", "normalized growth": 0.994}
{"compound": "CO/N=C(/C(=O)NC1C(=O)N2C(C(=O)OCOC(=O)C(C)(C)C)=C(/C=C\\c3scnc3C)CSC12)c1csc(N)n1 (stereo unspecified)", "normalized growth": 0.962}
{"compound": "NC(Cc1ccc(Cl)cc1)C(=O)O (stereo unspecified)", "normalized growth": 0.971}
{"compound": "O=[N+]([O-])c1ccc(Sc2ccccc2)cc1O", "normalized growth": 0.736}
{"compound": "C[N+]1(C)CCCC(OC(=O)C(O)(c2ccccc2)c2ccccc2)C1 (stereo unspecified)", "normalized growth": 1.02}
{"compound": "O=[N+]([O-])c1ccc(Sc2ccccc2)c([N+](=O)[O-])c1", "normalized growth": 0.396}
{"compound": "CCCCCC/C=C\\CCCCCCCc1cccc(O)c1C(=O)O", "normalized growth": 0.946}
{"compound": "CC(=O)c1ccc(Sc2ccccc2)c([N+](=O)[O-])c1", "normalized growth": 0.698}

Each recorded value in this set is attributed to PubChem BioAssay AID1159580.
